Biological target: RFC WB-EA (Walker B Glu to Ala quadruple mutant) (Saccharomyces cerevisiae, UniProt P38630;P40348;P38629;P40339;P38251 284-861;1-353;1-340;1-323;1-354, E425A;E141A;E118A;E115A)
Experiment: fluorescence anisotropy; 0.5 mM ATPgS; no PCNA; 20 nM p/t DNA-RhX, 0.5 mM ATPgS, varied RFC, with or without 2 uM PCNA; buffer, salt, pH and temperature not in the material (Section 3.1 text missing)
Settings: protein: recombinant; tags: Rfc1 N-terminal 6xHis and kinase recognition motif replacing residues 1-283; copies: 1;1;1;1;1; label: X-rhodamine (RhX) on 5' end of template; primer-template: 26 bp duplex with 34 nt 5' template overhang
Endpoint: Kd
Kindly report the value followed by its unit.

query: Supply Kd value. Item: p/t DNA-RhX (26/60-mer primed template) (dsDNA, 5' C6 amino linker on the 60-mer template) DNA 1: TTCAGGTCAGAAGGGTTCTATCTCTGTTGGCCAGAATGTCCCTTTTATTACTGGTCGTGT DNA 2: ACACGACCAGTAATAAAAGGGACATT
result: 1060 nM
